A collection of compounds and their measured pIC50
# study-system: CRBN-DDB1 (Homo sapiens)
# Construct: 6xHis (given for the complex); made in house; host or cells: Sf9 cells (Invitrogen), pFastBac
# assay-protocol: CRBN-DDB1 Ligand-Displacement AlphaScreen Assay (thalidomide competition)
# Format: binding
# settings: read-out: CRBN alpha IC50
As a rule, pIC50 stands for the negative log10 of the concentration, concentration in M.

Name the reported pIC50 value associated with the compound O=C1CCC(N2C(=O)c3ccc(NCc4ccco4)cc3C2=O)C(=O)N1 [Compound D-28]
7.40

Moving on to the next compound: CC(C)Nc1ccc2c(c1)C(=O)N(C1CCC(=O)NC1=O)C2=O [Compound D-26]
6.95

Moving on to the next compound: O=C(O)COc1cccc2c1C(=O)N(C1CCC(=O)NC1=O)C2=O [Compound D-64]
5.67

Moving on to the next compound: Cc1nc2ccccc2c(=O)n1C1CCC(=O)NC1=O [Compound D-9]
4.84

Moving on to the next compound: O=C1CCC(N2C(=O)c3cccc([N+](=O)[O-])c3C2=O)C(=O)N1 [Compound D-56]
5.51

Moving on to the next compound: O=C1CCC(N2C(=O)c3ccc(Br)cc3C2=O)C(=O)N1 [Compound D-58]
6.15

Moving on to the next compound: CC(=O)Nc1ccc2c(c1)C(=O)N(C1CCC(=O)NC1=O)C2=O [Compound D-5]
6.58

----------
# Test system: NMC-G1
# assay-protocol: cells
# settings: 72 h, read-out: IC50 (nM) NMC-G1
measurement-kind: IC50

Name the reported IC50 value associated with the molecule Cc1sc2c(c1C)C(c1ccc(Cl)cc1)=N[C@@H](CC(=O)NCCCCCCCCNC(=O)COc1cccc3c1C(=O)N(C1CCC(=O)NC1=O)C3=O)c1nnc(C)n1-2 (stereo partly shown)
70 nM

----------
# study-system: CRBN-DDB1 (Homo sapiens)
# Construct: 6xHis (given for the complex); made in house; host or cells: Sf9 cells (Invitrogen), pFastBac
# assay-protocol: CRBN-DDB1 Ligand-Displacement AlphaScreen Assay (thalidomide competition);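 note: streptavidin donor and nickel chelate acceptor bead proximity signal after 30 min incubation, normalized with no-protein background as 0% and DMSO wells as 100% activity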
# Format: binding
# settings: read-out: CRBN alpha IC50
measurement-kind: IC50

# count of solved cases: 3
molecule	IC50
CCOc1cccc2c1C(=O)N(C1CCC(=O)NC1=O)C2=O (stereo not drawn)	0.259 µM
O=C1CCC(N2C(=O)c3cccc(NCc4ccccc4)c3C2=O)C(=O)N1 (stereo not drawn)	0.0714 µM
C[C@@]1(N2C(=O)c3cccc(O)c3C2=O)CCC(=O)NC1=O	39.5 µM

Name the reported IC50 value associated with the molecule O=C1CCC(N2C(=O)c3ccc([N+](=O)[O-])cc3C2=O)C(=O)N1 [Compound D-61]
2.66 µM

Moving on to the next molecule: Cc1cccc2c1C(=O)N(C1CCC(=O)NC1=O)C2=O (stereo not drawn)
0.147 µM

Moving on to the next molecule: O=C1CCC(N2C(=O)c3ccc(F)cc3C2=O)C(=O)N1 (stereo not drawn)
0.493 µM

Moving on to the next molecule: O=C1CCC(N2C(=O)c3ccc(NCc4ccccc4)cc3C2=O)C(=O)N1 (stereo not drawn)
0.0589 µM

----------
A collection of compounds and their measured Dmax
# study-system: BRD4 (Homo sapiens)
# assay-protocol: BRD4 Cell Western (BRD4 levels in 293T cells, LiCOR)
# Format: cell-based
# Parameters: BRD4 levels in the cells after the dBET treatment; endogenous in cells
# settings: HEK-293T; read-out: BRD4 max degradation(%) Cell Western
Could you give me the number in %? Just the number is fine.

Lab request: please report Dmax under test system BRD4 (Homo sapiens) for Cc1sc2c(c1C)C(c1ccc(Cl)cc1)=N[C@@H](CC(=O)NCCCN1CCN(C(=O)CCCCCNC(=O)COc3cccc4c3C(=O)N(C3CCC(=O)NC3=O)C4=O)CC1)c1nnc(C)n1-2 (stereo partly drawn)
57
